Provide the reported aptazyme ON/OFF ratio of each item.
B1: Pistol ribozyme (parent)
chain: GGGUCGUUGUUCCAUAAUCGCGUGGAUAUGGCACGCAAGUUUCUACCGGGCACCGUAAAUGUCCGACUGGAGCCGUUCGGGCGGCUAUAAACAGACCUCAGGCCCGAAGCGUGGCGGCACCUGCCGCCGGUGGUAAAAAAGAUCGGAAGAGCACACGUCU

# Variants of: B1
# Procedure summary: aptazyme ON/OFF ratio, guanine; higher = stronger switching; co-transcriptional cleavage with and without guanine
Numbers only.

Please report aptazyme ON/OFF ratio for every entry that follows.
1. U8A U10C C12A C13U
2. U7G U8A G9C U11G C12G C13U
3. U7G U8G G9U U10G U11C C12G C13U
4. U7G U8G G9A U11G C12A C13U
5. U7C U8C G9A U11G C12U C13G
6. U8G G9C U10G U11C
7. U8G G9U U10C U11G C13G
8. U7A U8C G9A U10C U11C C13G

Ans:
1.26
1.03
1.14
1.18
1.15
1.03
1.03
1
